Test system: PANC-1 pancreatic cancer cell line
Assay: Cell proliferation assay (DAPI)
Type: cell-based
Details: Homo sapiens
Each entry below lists one item and its recorded IC50 value.

- Compound: "CO[C@H]1CCC(Nc2nc(-c3nccn3C)nc3sc(-c4ccn(C)n4)c(-c4ccccc4)c23)C1 (stereo partly shown) [drawing 548]"
  Reading: "500 to 749 nM"

Task item: Using the record for CO[C@@H]1CCC(Nc2nc(-c3nccn3C)nc3sc(-c4ccn(C)n4)c(-c4ccccc4)c23)C1 (stereo partly shown) [drawing 549] , report its IC50.
Reply: 750 to 1000 nM

Task item: Using the record for COCCNc1nc(-c2nccn2C)nc2sc(-c3cccc(OC)c3Cl)c(-c3ccccc3)c12 [drawing 567] , report its IC50.
Reply: 750 to 1000 nM

Task item: Using the record for Cn1ccc(-c2sc3nc(-c4nccn4C)nc(NCC4CCOC4)c3c2-c2ccccc2)n1 (stereo not shown) [drawing 547] , report its IC50.
Reply: > 1000 nM

----------
System: KRas G12C mutant
Assay: Ras GTP binding domain inhibition assay (Cy3-GTP/Cy5-GTP competition)
Design: species or system human
Conditions: 20 μM; without SOS (Table 7A)
Reported Metric: KRas G12C mutant: % inh.

- Compound: "COc1c(O)nc(-c2ccccn2)nc1Nc1ccccc1 [drawing 880]"
  Reported Metric: "KRas G12C mutant: % inh."
  Reading: "C (51-75% inhibition)"
- Compound: "CO[C@H]1CC[C@@H](Nc2nc(-c3nccn3C)nc3sc(C(=O)NC(C)C)c(-c4ccccc4)c23)C1 [drawing 924]"
  Reported Metric: "KRas G12C mutant: % inh."
  Reading: "C (51-75% inhibition)"
- Compound: "CO[C@H]1CC[C@@H](Nc2nc(-c3nccn3C)nc3sc(C(=O)N4CCOCC4)c(-c4ccccc4)c23)C1 [drawing 927]"
  Reported Metric: "KRas G12C mutant: % inh."
  Reading: "C (51-75% inhibition)"

----------
Test system: KRas wild type
Experiment: Ras GTP binding domain inhibition assay (Cy3-GTP/Cy5-GTP competition)
Set-up: species or system human
Details: 20 μM; with SOS
Reported Metric: KRas wild type + SOS: % inh.

Examples from the recorded data:
- Molecule: "COC1CCN(c2nc(-c3nccn3C)nc3sc(-c4cnn(C)c4)c(-c4ccccc4)c23)C1.Cl (stereo not drawn)"
  Reading: "D (76-100% inhibition)"
- Molecule: "COC1CCN(c2nc(-c3nccn3C)nc3sc(-c4ccc(CO)cc4)c(-c4ccccc4)c23)C1.Cl (stereo not drawn)"
  Reading: "D (76-100% inhibition)"
- Molecule: "O=C(NC1CCC1)c1nc(-c2ccccn2)nc(O)c1O [drawing 809]"
  Reading: "A (1-25% inhibition)"
- Molecule: "COCCNc1nc(-c2nccn2C)nc2sc(-c3ccccc3Cl)c(-c3ccc(OC)cc3)c12 [drawing 876]"
  Reading: "D (76-100% inhibition)"
- Molecule: "Cn1ccc(-c2sc3nc(-c4nccn4C)nc(NCC4CCOC4)c3c2-c2ccccc2)n1 (stereo not drawn) [drawing 861]"
  Reading: "B (26-50% inhibition)"
- Molecule: "COC1CCN(c2nc(-c3nccn3C)nc3sc(-c4ccn(C)n4)c(-c4ccccc4)c23)C1 (stereo not drawn) [drawing 863]"
  Reading: "B (26-50% inhibition)"
- Molecule: "O=C(c1nc(-c2ccccn2)nc(O)c1O)N1CCCC1 [drawing 831]"
  Reading: "A (1-25% inhibition)"
- Molecule: "COc1cccc(-c2csc3c(O)nc(-c4nccn4C)nc23)c1Cl [drawing 878]"
  Reading: "A (1-25% inhibition)"

Task item: Give recorded KRas wild type + SOS: % inh. with KRas wild type for the following molecule: COCCNc1nc(-c2cn(C)cn2)nc2sc(-c3ccccc3Cl)c(-c3ccc(OC)cc3)c12 [drawing 873]
Reply: D (76-100% inhibition)

----------
Target: KRas G12D mutant (Homo sapiens, UniProt P01116, G12D)
Construct: fused on or other part: His tag, used for capture on nickel-coated plates
Assay: Ras GTP binding domain inhibition assay (Cy3-GTP/Cy5-GTP competition)
Conditions: at 20 μM, without SOS; read-out: KRas G12D mutant: % inh.
Reported Metric: inhibition at 20 µM

- Compound: "Cn1ccnc1-c1nc(O)c(O)c(C(=O)N2CCCCC2)n1 [drawing 961]"
  inhibition at 20 µM: "26 to 50%"

Task item: Using the record for COCC(C)Nc1nc(-c2nccn2C)nc2sc(-c3cccc(OC)c3)c(-c3cscn3)c12 (centres unmarked) [drawing 990] , report its inhibition at 20 µM.
Reply: 51 to 75%

Task item: Using the record for Oc1nc(-c2nccn2Cc2ccccn2)nc2c(-c3ccccn3)csc12 [drawing 986] , report its inhibition at 20 µM.
Reply: 76 to 100%

Task item: Using the record for CO[C@H]1CC[C@@H](Nc2nc(-c3nccn3C)nc3sc(-c4cccc5[nH]ncc45)c(-c4ccccc4)c23)C1 [drawing 1024] , report its inhibition at 20 µM.
Reply: 51 to 75%

Task item: Using the record for COc1ccc(-c2c(-c3cccc(OC)c3F)sc3nc(-c4nccn4C)nc(N4CCC(OC)C4)c23)cc1 (centres unmarked) [drawing 941] , report its inhibition at 20 µM.
Reply: 51 to 75%

Task item: Using the record for COCC1CN(c2nc(-c3nccn3C)nc3sc(-c4cccc(OC)c4F)c(-c4ccc(OC)cc4)c23)C1 [drawing 940] , report its inhibition at 20 µM.
Reply: 51 to 75%

Task item: Using the record for COC1CCN(c2nc(-c3nccn3C)nc3sc(-c4ccccc4Cl)c(-c4cscn4)c23)C1 (centres unmarked) [drawing 984] , report its inhibition at 20 µM.
Reply: 51 to 75%

Task item: Using the record for COCCCNc1nc(-c2nccn2C)nc2sc(-c3ccn(C)n3)c(-c3ccccc3)c12 [drawing 1001] , report its inhibition at 20 µM.
Reply: 1 to 25%

Task item: Using the record for COCCn1cc(Nc2nc(-c3ccccn3)nc(OC)c2OC)cn1 [drawing 928] , report its inhibition at 20 µM.
Reply: 1 to 25%

Task item: Using the record for COc1cccc(Oc2nc(-c3ccccn3)nc(O)c2OC)c1 [drawing 936] , report its inhibition at 20 µM.
Reply: 76 to 100%

Task item: Using the record for COC1CCN(c2nc(-c3nccn3C)nc3sc(-c4cccnc4)c(-c4ccccc4)c23)C1 (centres unmarked) [drawing 979] , report its inhibition at 20 µM.
Reply: 51 to 75%

Task item: Using the record for COc1ccc(Cn2cnc(-c3nc(O)c4scc(-c5ccccn5)c4n3)c2)cc1 [drawing 974] , report its inhibition at 20 µM.
Reply: 1 to 25%

Task item: Using the record for CC(C)CN(C)C(=O)c1nc(-c2ccccn2)nc(O)c1O [drawing 933] , report its inhibition at 20 µM.
Reply: 26 to 50%

----------
Molecular target: UniProt P61586
Test: Ras GTP binding domain inhibition assay (Cy3-GTP/Cy5-GTP competition)
Conditions: with SOS, read-out: Rho-A + SOS: % inh.
Reported Metric: inhibition at 20 µM

Examples from the recorded data:
- Compound: "COCCNc1nc(-c2cn(C)cn2)nc2sc(-c3cccc(OC)c3Cl)c(-c3ccc(OC)cc3)c12 [drawing 932]"
  inhibition at 20 µM: "51 to 75%"
- Compound: "COC1CCN(c2nc(-c3nccn3C)nc3sc(-c4ccccc4CO)c(-c4ccccc4)c23)C1 (centres unmarked) [drawing 952]"
  inhibition at 20 µM: "26 to 50%"
- Compound: "CO[C@H]1CC[C@@H](Nc2nc(-c3nccn3C)nc(C(=O)N3CCc4c(O)cccc4C3)c2C)C1 [drawing 1036]"
  inhibition at 20 µM: "76 to 100%"
- Compound: "CO[C@H]1CC[C@@H](Nc2nc(-c3nccn3C)nc3sc(C(=O)NC(C)C)c(-c4ccccc4)c23)C1 [drawing 1059]"
  inhibition at 20 µM: "76 to 100%"
- Compound: "Oc1nc(-c2cn(-c3ccccc3)cn2)nc2c(-c3ccccn3)csc12 [drawing 982]"
  inhibition at 20 µM: "26 to 50%"

Task item: Using the record for COC1CCN(c2nc(-c3nccn3C)nc3sc(-c4ccncc4C)c(-c4ccccc4)c23)C1 (centres unmarked) [drawing 955] , report its inhibition at 20 µM.
Reply: 0%

Task item: Using the record for COc1cccc(Oc2nc(-c3ccccn3)nc(O)c2OC)c1 [drawing 936] , report its inhibition at 20 µM.
Reply: 51 to 75%

Task item: Using the record for COCC(C)Nc1nc(-c2nccn2C)nc2sc(-c3ccn(C)n3)c(-c3ccccc3)c12 (centres unmarked) [drawing 999] , report its inhibition at 20 µM.
Reply: 26 to 50%

----------
Tested on: KRas wild type
Test: Ras GTP binding domain inhibition assay (Cy3-GTP/Cy5-GTP competition)
Set-up: species or system human
Conditions: 20 μM; without SOS
Reported Metric: KRas wild type: % inh.

- Compound: "COCCn1cc(Nc2nc(-c3ccccn3)nc(OC)c2OC)cn1 [drawing 793]"
  Reading: "0 (0% inhibition)"
- Compound: "COC1CCN(c2nc(-c3nccn3C)nc3sc(-c4ccc(N)nc4C)c(-c4ccccc4)c23)C1.Cl (stereo not shown)"
  Reading: "A (1-25% inhibition)"
- Compound: "COC1CCN(c2nc(-c3nccn3C)nc3sc(Br)c(-c4ccccc4)c23)C1 (stereo not shown) [drawing 822]"
  Reading: "C (51-75% inhibition)"
- Compound: "Cc1cc(Cn2ccnc2-c2nc(O)c3scc(-c4ccccn4)c3n2)on1 [drawing 846]"
  Reading: "C (51-75% inhibition)"
- Compound: "COCC(C)Nc1nc(-c2nccn2C)nc2sc(-c3ccn(C)n3)c(-c3ccc(OC)cc3)c12 (stereo not shown) [drawing 869]"
  Reading: "A (1-25% inhibition)"
- Compound: "COc1nc(-c2ccccn2)nc(Nc2cnn(C)c2)c1OC [drawing 794]"
  Reading: "A (1-25% inhibition)"
- Compound: "Oc1nc(-c2ncc3n2CCCC3)nc2c(-c3ccccn3)csc12 [drawing 833]"
  Reading: "C (51-75% inhibition)"
- Compound: "CCN(CC)C(=O)c1nc(-c2nccn2C)nc(O)c1O [drawing 829]"
  Reading: "B (26-50% inhibition)"
- Compound: "COC1CCN(c2nc(-c3nccn3C)nc3sc(-c4ccnn4C)c(-c4ccccc4)c23)C1.Cl (stereo not shown)"
  Reading: "B (26-50% inhibition)"
- Compound: "CC(C)NC(=O)c1nc(-c2nccn2C)nc(O)c1O [drawing 830]"
  Reading: "C (51-75% inhibition)"

Task item: Using the record for COc1c(O)nc(-c2ccccn2)nc1Oc1ccc2ncccc2c1 [drawing 804] , report its KRas wild type: % inh..
Reply: C (51-75% inhibition)

Task item: Using the record for O=C(NCc1ccccc1)c1nc(-c2ccccn2)nc(O)c1O [drawing 821] , report its KRas wild type: % inh..
Reply: D (76-100% inhibition)

Task item: Using the record for COCCNc1nc(-c2cn(C)cn2)nc2sc(-c3ccccc3Cl)c(-c3ccc(OC)cc3)c12 [drawing 873] , report its KRas wild type: % inh..
Reply: A (1-25% inhibition)

Task item: Using the record for COCC(C)Nc1nc(-c2nccn2C)nc2sc(-c3cccc(OC)c3)c(-c3cscn3)c12 (stereo not shown) [drawing 855] , report its KRas wild type: % inh..
Reply: B (26-50% inhibition)

Task item: Using the record for COC1CCN(c2nc(-c3nccn3C)nc3sc(-c4ccccc4Cl)c(-c4cscn4)c23)C1 (stereo not shown) [drawing 849] , report its KRas wild type: % inh..
Reply: C (51-75% inhibition)

Task item: Using the record for Cn1ccnc1-c1nc(O)c(O)c(C(=O)NC2CCC2)n1 [drawing 825] , report its KRas wild type: % inh..
Reply: C (51-75% inhibition)

Task item: Using the record for Cn1ccnc1-c1nc(O)c(O)c(C(=O)N2CCCCC2)n1 [drawing 826] , report its KRas wild type: % inh..
Reply: C (51-75% inhibition)

Task item: Using the record for COc1c(O)nc(-c2ccccn2)nc1Oc1cccnc1 [drawing 802] , report its KRas wild type: % inh..
Reply: D (76-100% inhibition)

Task item: Using the record for COC(=O)c1nc(C2NCCN2C)nc(O)c1O (stereo not shown) , report its KRas wild type: % inh..
Reply: C (51-75% inhibition)
